- experimental-target: 5-hydroxytryptamine receptor 1A (Rattus norvegicus)
- Sequence (P19327 whole entry): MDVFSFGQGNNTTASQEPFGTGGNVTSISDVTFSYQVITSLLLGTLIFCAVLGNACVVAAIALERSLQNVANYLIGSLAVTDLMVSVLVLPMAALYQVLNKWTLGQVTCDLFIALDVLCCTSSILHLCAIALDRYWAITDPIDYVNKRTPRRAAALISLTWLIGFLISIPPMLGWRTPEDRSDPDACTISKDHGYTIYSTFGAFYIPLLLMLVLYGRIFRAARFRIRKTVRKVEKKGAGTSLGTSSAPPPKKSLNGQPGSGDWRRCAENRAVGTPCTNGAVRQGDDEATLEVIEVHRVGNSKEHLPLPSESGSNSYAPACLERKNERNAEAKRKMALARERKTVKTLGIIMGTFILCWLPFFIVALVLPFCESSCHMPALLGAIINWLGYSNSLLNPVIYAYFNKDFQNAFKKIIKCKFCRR
- measurement-notes: Inhibition of forskolin stimulated adenylate cyclase at 5-hydroxytryptamine 1A receptor
result-type: log10(EC50) (log10 of the value in nM)
Scale type: logarithmic (base 10). Underlying EC50 unit: nM.

Q) Please give measured log10(EC50) of the following entry: CN(C)CCc1c[nH]c2ccc(Nc3ncccc3[N+](=O)[O-])cc12
A) 2.23

Q) Please give measured log10(EC50) of the following entry: CNS(=O)(=O)Cc1ccc2[nH]cc(CCN(C)C)c2c1
A) 3.11

Q) Please give measured log10(EC50) of the following entry: CN1CCC[C@@H]1Cc1c[nH]c2ccc(Nc3ncccc3[N+](=O)[O-])cc12
A) 1.67

Q) Please give measured log10(EC50) of the following entry: O=[N+]([O-])c1cccnc1Nc1ccc2[nH]cc(C[C@H]3CCCN3)c2c1
A) 2.34

Q) Please give measured log10(EC50) of the following entry: CN1CCC(c2c[nH]c3ccc(Nc4ncccc4[N+](=O)[O-])cc23)C1 (stereo not given)
A) 2.95

----------
- experimental-target: 5-hydroxytryptamine receptor 1D (Rattus norvegicus)
- Sequence (P28565 whole entry): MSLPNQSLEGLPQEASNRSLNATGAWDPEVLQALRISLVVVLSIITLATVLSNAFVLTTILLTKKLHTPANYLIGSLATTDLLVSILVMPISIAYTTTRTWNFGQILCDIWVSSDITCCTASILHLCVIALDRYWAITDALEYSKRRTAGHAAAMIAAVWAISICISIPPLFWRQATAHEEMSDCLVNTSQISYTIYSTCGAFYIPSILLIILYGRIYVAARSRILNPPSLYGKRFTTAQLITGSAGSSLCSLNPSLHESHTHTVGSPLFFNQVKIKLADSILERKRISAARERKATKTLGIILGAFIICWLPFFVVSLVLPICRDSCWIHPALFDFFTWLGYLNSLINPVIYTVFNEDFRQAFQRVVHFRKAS
- measurement-notes: Inhibition of forskolin stimulated adenylate cyclase at 5-hydroxytryptamine 1D receptor
Assign pEC50 to each entry below.
Field pEC50 (float): negative decimal logarithm of the concentration in molar.

Q) Please give measured pEC50 of the following entry: CN(C)CCc1c[nH]c2ccc(Nc3ncccc3[N+](=O)[O-])cc12
A) 8.70

Q) Please give measured pEC50 of the following entry: CN1CCC(c2c[nH]c3ccc(Nc4ncccc4[N+](=O)[O-])cc23)C1 (centres undefined)
A) 8.70

Q) Please give measured pEC50 of the following entry: CN1CCC[C@@H]1Cc1c[nH]c2ccc(Nc3ncccc3[N+](=O)[O-])cc12
A) 8.89

Q) Please give measured pEC50 of the following entry: O=[N+]([O-])c1cccnc1Nc1ccc2[nH]cc(C[C@H]3CCCN3)c2c1
A) 8.89

----------
result-type: IC50 (nM)
Field format: number, assumed nM, no unit text.

Q) Quote 5-hydroxytryptamine receptor 1A (Rattus norvegicus, UniProt P19327) IC50 for entry O=[N+]([O-])c1cccnc1Nc1ccc2[nH]cc(C[C@H]3CCCN3)c2c1 .
A) 120

Q) Quote 5-hydroxytryptamine receptor 1A (Rattus norvegicus, UniProt P19327) IC50 for entry CNS(=O)(=O)Cc1ccc2[nH]cc(CCN(C)C)c2c1 .
A) 640

Q) Quote 5-hydroxytryptamine receptor 1A (Rattus norvegicus, UniProt P19327) IC50 for entry CN1CCC[C@@H]1Cc1c[nH]c2ccc(Nc3ncccc3[N+](=O)[O-])cc12 .
A) 33

Q) Quote 5-hydroxytryptamine receptor 1A (Rattus norvegicus, UniProt P19327) IC50 for entry CN(C)CCc1c[nH]c2ccc(Nc3ncccc3[N+](=O)[O-])cc12 .
A) 73

Q) Quote 5-hydroxytryptamine receptor 1A (Rattus norvegicus, UniProt P19327) IC50 for entry CN1CCC(c2c[nH]c3ccc(Nc4ncccc4[N+](=O)[O-])cc23)C1 (stereo not given) .
A) 320

----------
Assign pIC50 to each entry below.
Field pIC50 (float): negative decimal logarithm of the concentration in molar.

Q) Quote 5-hydroxytryptamine receptor 1D (Rattus norvegicus, UniProt P28565) pIC50 for entry O=[N+]([O-])c1cccnc1Nc1ccc2[nH]cc(C[C@H]3CCCN3)c2c1 .
A) 8.21

Q) Quote 5-hydroxytryptamine receptor 1D (Rattus norvegicus, UniProt P28565) pIC50 for entry CN1CCC(c2c[nH]c3ccc(Nc4ncccc4[N+](=O)[O-])cc23)C1 (centres undefined) .
A) 7.82

Q) Quote 5-hydroxytryptamine receptor 1D (Rattus norvegicus, UniProt P28565) pIC50 for entry CN1CCC[C@@H]1Cc1c[nH]c2ccc(Nc3ncccc3[N+](=O)[O-])cc12 .
A) 8.51

Q) Quote 5-hydroxytryptamine receptor 1D (Rattus norvegicus, UniProt P28565) pIC50 for entry CN(C)CCc1c[nH]c2ccc(Nc3ncccc3[N+](=O)[O-])cc12 .
A) 8.00

----------
- measurement-notes: Selectivity value is the ratio between IC50 values of 5-HT1A and 5-HT1D receptors
result-type: Selectivity
Answer with the value's number alone.

Q) Please give measured Selectivity of the following entry: O=[N+]([O-])c1cccnc1Nc1ccc2[nH]cc(C[C@H]3CCCN3)c2c1
A) 19

Q) Please give measured Selectivity of the following entry: CN1CCC(c2c[nH]c3ccc(Nc4ncccc4[N+](=O)[O-])cc23)C1 (centres undefined)
A) 21

Q) Please give measured Selectivity of the following entry: CN(C)CCc1c[nH]c2ccc(Nc3ncccc3[N+](=O)[O-])cc12
A) 7

Q) Please give measured Selectivity of the following entry: CN1CCC[C@@H]1Cc1c[nH]c2ccc(Nc3ncccc3[N+](=O)[O-])cc12
A) 11

----------
- measurement-notes: Selectivity value is the ratio between EC50 values of 5-HT1A and 5-HT1D receptors
Assign Selectivity to each entry below.
Answer with the value's number alone.

Q) Please give measured Selectivity of the following entry: CN1CCC(c2c[nH]c3ccc(Nc4ncccc4[N+](=O)[O-])cc23)C1 (centres undefined)
A) 440

Q) Please give measured Selectivity of the following entry: O=[N+]([O-])c1cccnc1Nc1ccc2[nH]cc(C[C@H]3CCCN3)c2c1
A) 170

Q) Please give measured Selectivity of the following entry: CN1CCC[C@@H]1Cc1c[nH]c2ccc(Nc3ncccc3[N+](=O)[O-])cc12
A) 36

Q) Please give measured Selectivity of the following entry: CN(C)CCc1c[nH]c2ccc(Nc3ncccc3[N+](=O)[O-])cc12
A) 85
